# pKd per entry
# target: NHERF4_1, Q86UT5-2
# Sequence (Q86UT5 other isoform, or with tags, fused parts or gaps): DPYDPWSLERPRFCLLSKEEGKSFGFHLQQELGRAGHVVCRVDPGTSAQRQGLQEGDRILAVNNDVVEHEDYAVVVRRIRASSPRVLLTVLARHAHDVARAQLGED
# procedure_summary: holdup assay
# Design: key: below the threshold = too weak to quantify, mostly under pKd 3.1 to 4
# test_conditions: plain residues with an end cap or a label only (N-terminal biotin on a linker: ado-ado)
Answer with a number only.

binder: QLSFNTDTLC [ABCA2, Q9BZC7]
pKd: 4.18

binder: SLNANEVEWF [RNF130, Q86XS8]
pKd: 3.89

binder: AAVENKVTDL [PLXNB1, O43157]
pKd: 4

Consider the record given below.
For the binder VLYPREGTEV [FOXI1, Q12951] , what pKd is on record? 3.71
